Each entry below lists one item and its recorded inhibition at 10 µM value.
molecular target: HIV-1 protease (Human immunodeficiency virus type 1 group M subtype B); experiment: biochemical; conditions: read-out: HIV-1 Protease % Inhib, dose 10.000 uM
measured.metric: inhibition at 10 µM (%)

[
  {
    "compound": "CCC(c1cccc(O)c1)c1c(O)c2ccccc2oc1=O (centres unmarked)",
    "assayed.system": "HIV-1 protease (Human immunodeficiency virus type 1 group M subtype B)",
    "units.of.measure": "%",
    "value": 25.7
  },
  {
    "compound": "O=c1oc2c(c(O)c1C(c1cccc(NS(=O)(=O)c3cccc4nsnc34)c1)C1CC1)CCCCCC2 (centres unmarked)",
    "assayed.system": "HIV-1 protease (Human immunodeficiency virus type 1 group M subtype B)",
    "units.of.measure": "%",
    "value": 101
  },
  {
    "compound": "O=c1oc2c(c(O)c1[C@H](c1cccc(NS(=O)(=O)c3cccc4cccnc34)c1)C1CC1)CCCCCC2",
    "assayed.system": "HIV-1 protease (Human immunodeficiency virus type 1 group M subtype B)",
    "units.of.measure": "%",
    "value": 101
  },
  {
    "compound": "CC(c1cccc(C(=O)NCc2ccccc2)c1)c1c(O)c2ccccc2oc1=O (centres unmarked)",
    "assayed.system": "HIV-1 protease (Human immunodeficiency virus type 1 group M subtype B)",
    "units.of.measure": "%",
    "value": 17.9
  },
  {
    "compound": "CCC(c1c(O)c2ccccc2oc1=O)c1cccc2ccccc12 (centres unmarked)",
    "assayed.system": "HIV-1 protease (Human immunodeficiency virus type 1 group M subtype B)",
    "units.of.measure": "%",
    "value": 20.3
  },
  {
    "compound": "COc1ccc2c(O)c(C(c3ccccc3)C3CC3)c(=O)oc2c1 (centres unmarked)",
    "assayed.system": "HIV-1 protease (Human immunodeficiency virus type 1 group M subtype B)",
    "units.of.measure": "%",
    "value": 83.2
  },
  {
    "compound": "Cc1c(Cl)cccc1S(=O)(=O)Nc1cccc(C(c2c(O)c3c(oc2=O)CCCCCC3)C2CC2)c1 (centres unmarked)",
    "assayed.system": "HIV-1 protease (Human immunodeficiency virus type 1 group M subtype B)",
    "units.of.measure": "%",
    "value": 99.5
  },
  {
    "compound": "O=c1oc2c(c(O)c1C(c1cccc(NS(=O)(=O)c3cccc(NO)c3)c1)C1CC1)CCCCCC2 (centres unmarked) [Example 353 (Second Title Compound)]",
    "assayed.system": "HIV-1 protease (Human immunodeficiency virus type 1 group M subtype B)",
    "units.of.measure": "%",
    "value": 113
  }
]
